Assay: Pharmacokinetic experiment: drug concentration in plasma of SD rats after oral administration (LC-MS/MS)
Conditions: male, SD, rat, po, 10 mg/kg

{"compound": "C[C@@]12CCCCC[C@@H](Cc3ccc(O)cc31)[C@@H]2NCCOCCOCCOCCOCCN[C@H]1[C@H]2CCCCC[C@]1(C)c1cc(O)ccc1C2 [JK-2215D03, Pentaethylene Glycol-Dezocine Conjugate]", "AUC(0-t), ng·h/mL": 1230}
{"compound": "C[C@@]12CCCCC[C@@H](Cc3ccc(O)cc31)[C@@H]2N [JK-2215D00, reference compound]", "AUC(0-t), ng·h/mL": 232}

###

Assay: Pharmacokinetic experiment: drug concentration in plasma of SD rats after oral administration (LC-MS/MS)
Details: male, SD, rat, po, 10 mg/kg

{"compound": "C[C@@]12CCCCC[C@@H](Cc3ccc(O)cc31)[C@@H]2N [JK-2215D00, reference compound]", "half-life [h]": 1.41}
{"compound": "C[C@@]12CCCCC[C@@H](Cc3ccc(O)cc31)[C@@H]2NCCOCCOCCOCCOCCN[C@H]1[C@H]2CCCCC[C@]1(C)c1cc(O)ccc1C2 [JK-2215D03, Pentaethylene Glycol-Dezocine Conjugate]", "half-life [h]": 4.12}

###

Assay: Pharmacokinetic experiment: drug concentration in brain tissue of SD rats after oral administration (LC-MS/MS)
Settings: male, SD, rat, brain, po, 10 mg/kg

{"compound": "C[C@@]12CCCCC[C@@H](Cc3ccc(O)cc31)[C@@H]2N [JK-2215D00, reference compound]", "half-life, h": 2.05}
{"compound": "C[C@@]12CCCCC[C@@H](Cc3ccc(O)cc31)[C@@H]2NCCOCCOCCOCCOCCN[C@H]1[C@H]2CCCCC[C@]1(C)c1cc(O)ccc1C2 [JK-2215D03, Pentaethylene Glycol-Dezocine Conjugate]", "half-life, h": 19.7}

###

Test: Pharmacokinetic experiment: drug concentration in brain tissue of SD rats after oral administration (LC-MS/MS)
Conditions: male, SD, rat, brain, po, 10 mg/kg

{"compound": "C[C@@]12CCCCC[C@@H](Cc3ccc(O)cc31)[C@@H]2N [JK-2215D00, reference compound]", "Tmax": "1 h"}
{"compound": "C[C@@]12CCCCC[C@@H](Cc3ccc(O)cc31)[C@@H]2NCCOCCOCCOCCOCCN[C@H]1[C@H]2CCCCC[C@]1(C)c1cc(O)ccc1C2 [JK-2215D03, Pentaethylene Glycol-Dezocine Conjugate]", "Tmax": "7 h"}
